- Test system: MS2 coat protein
- METHOD_DESCRIPTION: apparent Kd, MS2 coat protein; higher = weaker binding; RNA-MaP array; FMN 200 µM where present
- MEASUREMENT_CONTEXT: ligand present: flavin mononucleotide; designed as: OFF switch for flavin mononucleotide
READOUT_TYPE: apparent Kd
Answer as a quantity: numeral, then unit.

// known answers, use as guide
>>> test_result("UAGGGCUUGGGCAGAAGGGUUACAUGAGGAUCACCCAUGUACAGAAGGAGAGCCUUGGGAAAGCUCUAGGAUAUGUCUAUGGGU")
"6.66 nM"
>>> test_result("AAUGUUUGAUUCCACUUAUACAUGAGGAUCACCCAUGUUAUCGAGGAUAUGCAUUAGAGUGUUUAGCAGAAGGCGAUGUAAUUU")
"17.5 nM"
>>> test_result("CUAAUUAGUCAGAAGGUGCUGCCGGAAUCAUAGCAAGGAUAUGACAUGAGGAUCACCCAUGUACAGAUCCUACAUAAAAUCAGG")
"8.98 nM"
>>> test_result("AAUUUACAGCUAGGAUAUACAUGAGGAUCACCCAUGUAAUCAUAUGAUGUUAUCAUUGUAUGAGUGUAGAAGGAGCAAAUAAGA")
"6.34 nM"
>>> test_result("GUCAGCUCGUGAGGAUAUACAACACUGCUUCUGCAGUGUAUUAAGAUCACAUGAGGAUCACCCAUGUAGAAGGCACGAGCUGAU")
"234 nM"
>>> test_result("GGAUAGGGCAGAGGAUAUACGUGCUAGAGAUACUAGCAAAAUUUCCUCACAUGAGGAUCACCCAUGUAGAAGGCUGUCCUAUCG")
"464 nM"
>>> test_result("AAACUCAUUGUCAGGAUAUGUAUUGAAGGAAUCGGACAGAAGGGACAUGAGGAUCACCCAUGUUACUAAGACCC")
"74.3 nM"
>>> test_result("AGGAUCCUAUCAAGACAAAUGUACAUGAGGAUCACCCAUGUGCAGGAUAUAGCUAGUUACGGUGGCUAGAAGGGCACACCAAAA")
"14.3 nM"

// query Quick one: apparent Kd of UCGGCGCGAGGAUAUACGUUUGCGCUUUUUCGUUUUUGUGUACAUGAGGAUCACCCAUGUAGAAGGCGCGCCGC ?
// result 19.8 nM

// query Quick one: apparent Kd of AAGCUUGAUCCUCGUGUAUACAUGAGGAUCACCCAUGUGACGCAGGAUAUAGGCGUGUUAGUAGCCUAGAAGGGCGAGCAGCGA ?
// result 73.5 nM

// query Quick one: apparent Kd of GUAUAUAGUGUGAGGAUAUGCUGGUCCUUGGAUCAGCAGAAGGCACAUGAGGAUCACCCAUGUAGUUAAAUAUG ?
// result 100 nM

// query Quick one: apparent Kd of UCCUGGCGAGGAUAUACAAAGAUUUUUUCGUUUUGUUACGAACAUGAGGAUCACCCAUGUAGAAGGUGCUGCUG ?
// result 193 nM

// query Quick one: apparent Kd of CGACAGUCAGGAUAUGCAAAAAAAAAAAAAAAAAAAAAAAAGCAGAAGGGACAUGAGGAUCACCCAUGUCGUCG ?
// result 45.2 nM

// query Quick one: apparent Kd of GUUAGACAUGAGGAUCACCCAUGUGAGGAUAUGAUGCGAUCGUGAUGAAAUGAUCGCAUCAGAAGGCACAUAUG ?
// result 423 nM

// query Quick one: apparent Kd of UUACUGUAAUAGAAGGGUAUUUGGGUAGUACAUGAGGAUCACCCAUGUUUUAUAGGAUAUGUUUAUAGUUUUUAAUCAAGUUUA ?
// result 62.3 nM
